System: Rutgers A strain house flies
Assay: topical application, percent kill after 24 hours, resistant Rutgers A strain
Format: in vivo, female)
Conditions: GS 13005 1.0 + synergist 5.0 μg/fly
Measured percent kill after 24 hours, with GS 13005 accompanies every entry in the list below.
Express it in %; write the number only.

Report percent kill after 24 hours, with GS 13005 for C#CCOCc1ccc(Cl)cc1[N+](=O)[O-] [II-J] please. 100

Same question for C#CCOCc1cccc2ccccc12 [II-R, α-napthylmethyl 2-propynyl ether] please. 55

Same question for C#CCOCc1ccc([N+](=O)[O-])cc1Cl [II-N] please. 60

Same question for C#CCOCc1c(Cl)cccc1Cl [II-H] please. 100

Same question for C#CCOCc1cccc([N+](=O)[O-])c1Cl [II-L] please. 83

New cases:
Report percent kill after 24 hours, with GS 13005 for C#CCOCc1c(Cl)cccc1[N+](=O)[O-] [II-K] please. 100

Same question for C#CCOCc1ccc([N+](=O)[O-])cc1 [II-Q, 4-nitrobenzyl 2-propynyl ether] please. 100

Same question for C#CCOCc1ccccc1[N+](=O)[O-] [II-P, 2-nitrobenzyl 2-propynyl ether] please. 92

Same question for C#CCON=C(C)c1ccc2ccccc2c1 [I-F] please. 95

Same question for C#CCOCc1ccc([N+](=O)[O-])c(Cl)c1 [II-O] please. 47

Same question for C#CCON=Cc1cccc([N+](=O)[O-])c1 [I-B] please. 100

###

System: male mice
Experiment: extension of sleeping time of depressant drugs by synergists
Assay type: in vivo, male mice (Swiss albino white)
Details: Secobarbital 37 mg/kg; synergist 110 mg/kg; treated/control
Measured Relative Sleeping Time, Secobarbital accompanies every entry in the list below.
Reply: number alone, nothing else.

Reference set (10 entries):
# returns recorded Relative Sleeping Time, Secobarbital (system: male mice) for "C#CCON=C(C)c1ccc(Cl)cc1" 1.7

Same question for "C#CCOCc1ccc(Cl)cc1[N+](=O)[O-]" please. 1.4

Same question for "C#CCON=C(C)c1ccc2ccccc2c1" please. 2.2

Same question for "C#CCOCc1cc(Cl)c(Cl)cc1Cl" please. 1.0

Same question for "C#CCOCc1ccc([N+](=O)[O-])cc1Cl" please. 1.7

Same question for "C#CCON=Cc1cccc2ccccc12" please. 1.7

Same question for "C#CCOCc1ccc(Cl)c(Cl)c1Cl" please. 1.2

Same question for "C#CCOCc1ccc([N+](=O)[O-])cc1" please. 1.6

Same question for "C#CCOCc1cccc2ccccc12" please. 1.6

Same question for "C#CCn1ncc2cc([N+](=O)[O-])ccc21" please. 1.1

New cases:
# returns recorded Relative Sleeping Time, Secobarbital (system: male mice) for "C#CCON=Cc1cccc([N+](=O)[O-])c1" 1.7

Same question for "C#CCOCc1c(Cl)cccc1Cl" please. 2.1

Same question for "C#CCOCc1cccc(Cl)c1[N+](=O)[O-]" please. 1.3

Same question for "C#CCON=Cc1ccc(Cl)cc1Cl" please. 1.7

Same question for "C#CCn1ncc2ccc(Cl)cc21" please. 1.2

Same question for "C#CCOCc1c(Cl)ccc(Cl)c1Cl" please. 1.4

###

System: Swiss albino, white male mice
Experiment: acute toxicity and synergism of acute toxicity in mice
Format: in vivo
Details: Methadone 32 + synergist 215 mg/kg
Lab note: anything with number of mice dead, with Methadone below 2 is marked class 1; values at 2 or higher are marked class 0.

Record excerpt, results attached:
Is 2 strictly greater than the molecule's reported number of mice dead, with Methadone? molecule: CCOCCOCCOC(C)Oc1ccc2c(c1)OCO2 (stereo not drawn) [Sesoxane, reference compound] class 0

Same question for C#CCOCc1ccc(Cl)cc1[N+](=O)[O-] [II-J] please. class 0

Same question for C#CCOCc1c(Cl)cccc1Cl [II-H] please. class 0

Consider the record given below.
Is 2 strictly greater than the molecule's reported number of mice dead, with Methadone? molecule: C#CCOCc1ccccc1[N+](=O)[O-] [II-P, 2-nitrobenzyl 2-propynyl ether] class 1

Where do these numbers come from? They come from patent US3954793A.
